test system: Artemia; experiment: Lethal concentration required against bioactivity using brine shrimp lethality test; format: functional
Rule: LC50 below 5 µg/mL gives satisfied, anything at or above gives not satisfied.

# COMPOUND, CATEGORY
rows = [
    ("COc1cccc2c1C(=O)c1c(O)c3c(c(O)c1C2=O)C[C@@](O)(C(=O)CO)C[C@@H]3O[C@H]1C[C@H](N)[C@H](O)[C@H](C)O1", "satisfied"),
    ("CCCCCCCCCCCC[C@@H](O)[C@H]1CC[C@H]([C@H]2CC[C@H]([C@H](O)CCCCCC[C@@H](O)CC3=C[C@H](C)OC3=O)O2)O1", "not satisfied"),
    ("CCCCCCC[C@H]1CC[C@H](CCCC[C@@H](O)[C@H]2CC[C@H](CCC[C@H](O)[C@@H](O)CCCCCCCC3=C[C@H](C)OC3=O)O2)O1", "satisfied"),
    ("CCCCCCCCCCCCCC[C@@H](O)[C@H]1CC[C@H]([C@H]2CC[C@H]([C@H](O)CCCCCC[C@@H](O)CC3=C[C@H](C)OC3=O)O2)O1", "not satisfied"),
    ("CCCCCCCCCCCC[C@@H](O)[C@H]1CC[C@H]([C@H]2CC[C@H]([C@H](O)CC[C@H](O)CCCCCCCC3=C[C@H](C)OC3=O)O2)O1", "satisfied"),
    ("CCCCCCCCCCCCCC[C@@H](O)[C@H]1CC[C@H]([C@H]2CC[C@H]([C@H](O)CCCC[C@@H](O)CC3=C[C@H](C)OC3=O)O2)O1", "not satisfied"),
    ("CCCCCCCCCC[C@@H](O)[C@H]1CC[C@H]([C@H]2CC[C@H]([C@H](O)CCCCCCCC[C@@H](O)CC3=C[C@H](C)OC3=O)O2)O1", "satisfied"),
    ("CCCCCCCCCCC(O)C1CCC(C2CCC(C(O)CCCCCCCC[C@H](O)CC3=C[C@@H](C)OC3=O)O2)O1 (stereo partly drawn)", "satisfied"),
]

----------
Form field: log10 EC50 (one value per entry).
tested on: HT-29; assay: Cytotoxicity concentration against human colon […] HT-29 cell line; type: functional; conditions: read-out: ED50 (the source's name)
MEASURED_METRIC: log10 EC50 (log10 of the value in µg/mL)

# TEST_SMILES, MEASURED_TARGET, EXPERIMENTAL_VALUE
records = [
    ("CCCCCCCCCCCCCC[C@@H](O)[C@H]1CC[C@H]([C@H]2CC[C@H]([C@H](O)CCCC[C@@H](O)CC3=C[C@H](C)OC3=O)O2)O1", "HT-29", 0.00),
    ("CCCCCCCCCCCC[C@@H](O)[C@H]1CC[C@H]([C@H]2CC[C@H]([C@H](O)CCCCCC[C@@H](O)CC3=C[C@H](C)OC3=O)O2)O1", "HT-29", -2.48),
    ("CCCCCCCCCC[C@@H](O)[C@H]1CC[C@H]([C@H]2CC[C@H]([C@H](O)CCCCCCCC[C@@H](O)CC3=C[C@H](C)OC3=O)O2)O1", "HT-29", -0.26),
    ("COc1cccc2c1C(=O)c1c(O)c3c(c(O)c1C2=O)C[C@@](O)(C(=O)CO)C[C@@H]3O[C@H]1C[C@H](N)[C@H](O)[C@H](C)O1", "HT-29", -1.31),
    ("CCCCCCCCCCCC[C@@H](O)[C@H]1CC[C@H]([C@H]2CC[C@H]([C@H](O)CC[C@H](O)CCCCCCCC3=C[C@H](C)OC3=O)O2)O1", "HT-29", -1.94),
    ("CCCCCCCCCCCCCC[C@@H](O)[C@H]1CC[C@H]([C@H]2CC[C@H]([C@H](O)CCCCCC[C@@H](O)CC3=C[C@H](C)OC3=O)O2)O1", "HT-29", -0.28),
]
